Measured protein stability index by item
B1: POLD4 (parent)
chain: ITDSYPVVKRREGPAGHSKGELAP

- Variants of: B1
- protocol: protein stability index of a GFP-peptide fusion (GPS, HEK-293T) (PSI 1-6); higher = more stable;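 also: lentivirally expressed fusions sorted by FACS into six bins by GFP to DsRed ratio, PSI derived from sequencing read proportions per bin multiplied by bin number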
- experimentalContext: c terminus: a fixed tail appended
Give the figure by itself; no unit, no explanation.

Below, 5 variants whose answers are already recorded.
{"columns": ["sequenceVariant", "protein stability index"],
 "data": [
  ["H17P", 2.5],
  ["S18T", 2.87],
  ["R11H", 3.28],
  ["L22P", 3.31],
  ["H17A", 2.97]
]}

Annotate the variant `G13E` with its measured protein stability index. 3.86
